Tested on: FR-positive M109 tumor
experiment: In vivo biodistribution in mice bearing M109 tumors; for T/spl: time not given here
applied conditions: 177Lu chelate, 300 nmol/kg

>  <smiles repr>
Nc1nc2ncc(CNc3ccc(C(=O)N[C@@H](Cc4ccc(OCCNC(=O)CN5CCN(CC(=O)O)CCN(CC(=O)O)CCN(CC(=O)O)CC5)cc4)C(=O)O)cc3)nc2c(=O)[nH]1

>  <T/spl>
85.5 +/− 7.7

$$$$
>  <smiles repr>
Nc1nc2ncc(CNc3ccc(C(=O)N[C@@H](Cc4ccc(OCC(=O)NCCNC(=O)CN5CCN(CC(=O)O)CCN(CC(=O)O)CCN(CC(=O)O)CC5)cc4)C(=O)O)cc3)nc2c(=O)[nH]1

>  <T/spl>
40.3 +/− 18.7

$$$$

----------
System: FR-positive M109 tumor
experiment: In vivo biodistribution in mice bearing M109 tumors
applied conditions: 177Lu chelate, 300 nmol/kg
readout type: T^2/kid

>  <compound>
Nc1nc2ncc(CNc3ccc(C(=O)N[C@@H](CCCCNC(=O)C[C@H](NC(=O)[C@H](Cc4ccc(Br)cc4)NC(=O)CNC(=O)CN4CCN(CC(=O)O)CCN(CC(=O)O)CCN(CC(=O)O)CC4)C(=O)O)C(=O)O)cc3)nc2c(=O)[nH]1 [Compound 43, Pte-Lys(β-Asp-4-Br-Phe-Gly-DOTA)-OH]

>  <tested system>
FR-positive M109 tumor

>  <readout type>
T^2/kid

>  <recorded result>
1.57 +/− 0.53

$$$$
>  <compound>
Nc1nc2ncc(CNc3ccc(C(=O)N[C@@H](CCCCNC(=O)[C@H](Cc4ccc5ccccc5c4)NC(=O)[C@H]4CC[C@H](CNC(=O)CN5CCN(CC(=O)O)CCN(CC(=O)O)CCN(CC(=O)O)CC5)CC4)C(=O)O)cc3)nc2c(=O)[nH]1 [Compound 23]

>  <tested system>
FR-positive M109 tumor

>  <readout type>
T^2/kid

>  <recorded result>
1.47 +/− 0.66

$$$$
>  <compound>
Nc1nc2ncc(CNc3ccc(C(=O)N[C@@H](CCCCNC(=O)C[C@H](NC(=O)[C@H](Cc4ccc5ccccc5c4)NC(=O)CNC(=O)CN4CCN(CC(=O)O)CCN(CC(=O)O)CCN(CC(=O)O)CC4)C(=O)O)C(=O)O)cc3)nc2c(=O)[nH]1 [Compound 34]

>  <tested system>
FR-positive M109 tumor

>  <readout type>
T^2/kid

>  <recorded result>
1.7 +/− 0.9

$$$$
>  <compound>
Nc1nc2ncc(CNc3ccc(C(=O)N[C@@H](CCCCNC(=O)COc4ccc(C[C@H](NC(=O)CN5CCN(CC(=O)O)CCN(CC(=O)O)CCN(CC(=O)O)CC5)C(=O)O)cc4)C(=O)O)cc3)nc2c(=O)[nH]1 [Compound 38]

>  <tested system>
FR-positive M109 tumor

>  <readout type>
T^2/kid

>  <recorded result>
1.28 +/− 0.11

$$$$
>  <compound>
CSCC[C@H](NC(=S)Nc1ccc(CC2CN(CC(=O)O)CCN(CC(=O)O)CCN(CC(=O)O)CCN2CC(=O)O)cc1)C(=O)N[C@H](C(=O)N[C@@H](CCCCN1C(=O)CC(SC[C@@H](NC(=O)[C@H](CC(=O)O)NC(=O)[C@H](CC(=O)O)NC(=O)[C@H](CCCNC(=N)N)NC(=O)[C@H](CC(=O)O)NC(=O)CC[C@H](NC(=O)c2ccc(NCc3cnc4nc(N)[nH]c(=O)c4n3)cc2)C(=O)O)C(=O)O)C1=O)C(=O)O)C(C)C (stereo partly drawn) [Compound 58]

>  <tested system>
FR-positive M109 tumor

>  <readout type>
T^2/kid

>  <recorded result>
0.59 +/− 0.16

$$$$
>  <compound>
Nc1nc2ncc(CNc3ccc(C(=O)N[C@@H](Cc4ccc(OCCNC(=O)CN5CCN(CC(=O)O)CCN(CC(=O)O)CCN(CC(=O)O)CC5)cc4)C(=O)O)cc3)nc2c(=O)[nH]1 [Compound 64, Pte-Tyr(OCH2CH2—NH-DOTA)-OH]

>  <tested system>
FR-positive M109 tumor

>  <readout type>
T^2/kid

>  <recorded result>
1.48 +/− 0.51

$$$$
>  <compound>
Nc1nc2ncc(CNc3ccc(C(=O)N[C@@H](CCCCNC(=O)COc4ccc(C[C@H](NC(=O)CNC(=O)CN5CCN(CC(=O)O)CCN(CC(=O)O)CCN(CC(=O)O)CC5)C(=O)O)cc4)C(=O)O)cc3)nc2c(=O)[nH]1 [Compound 37]

>  <tested system>
FR-positive M109 tumor

>  <readout type>
T^2/kid

>  <recorded result>
1.51 +/− 0.57

$$$$
>  <compound>
Nc1nc2ncc(CNc3ccc(C(=O)N[C@@H](CCCCNC(=O)C[C@H](NC(=O)[C@H](Cc4ccc5ccccc5c4)NC(=O)[C@H](Cc4ccc5ccccc5c4)NC(=O)CN4CCN(CC(=O)O)CCN(CC(=O)O)CCN(CC(=O)O)CC4)C(=O)O)C(=O)O)cc3)nc2c(=O)[nH]1 [Compound 42, Pte-Lys(β-Asp-2-Nal-2-Nal-DOTA)-OH]

>  <tested system>
FR-positive M109 tumor

>  <readout type>
T^2/kid

>  <recorded result>
1.64 +/− 0.62

$$$$
>  <compound>
Nc1nc2ncc(CNc3ccc(C(=O)N[C@@H](Cc4ccc(OCC(=O)NCCNC(=O)CN5CCN(CC(=O)O)CCN(CC(=O)O)CCN(CC(=O)O)CC5)cc4)C(=O)O)cc3)nc2c(=O)[nH]1 [Compound 61, Pte-Tyr(OCH2CO-EDA-DOTA)-OH]

>  <tested system>
FR-positive M109 tumor

>  <readout type>
T^2/kid

>  <recorded result>
1.05 +/− 0.28

$$$$

This collection of values is drawn from patent US20240252693A1.
